tested on: NCI-H1975; test: relative viability (nuclei count vs DMSO), 5 days (fraction); higher = more cells survive; conditions: first compound 4 µM
Quick reference: relative viability of the listed items.
value.kind: relative viability

>  <compound>
Clc1ccc(Nc2nnc(Cc3ccncc3)c3ccccc23)cc1 [Vatalanib] + C[C@]1(O)C[C@@H](c2nc(-c3ccc4ccc(-c5ccccc5)nc4c3)c3c(N)nccn32)C1 [Linsitinib] (partner 1 µM)

>  <value.kind>
relative viability

>  <readout.number>
0.86

$$$$
>  <compound>
COc1cc(N2CCC(C(N)=O)CC2)ccc1Nc1nc(N)c(Cl)c(Nc2ccccc2S(=O)(=O)C(C)C)n1 [HG-5-88-01] + CS(=O)(=O)CCNCc1ccc(-c2ccc3ncnc(Nc4ccc(OCc5cccc(F)c5)c(Cl)c4)c3c2)o1 [Lapatinib] (partner 2 µM)

>  <value.kind>
relative viability

>  <readout.number>
0.447

$$$$
>  <compound>
Clc1ccc(Nc2nnc(Cc3ccncc3)c3ccccc23)cc1 [Vatalanib] + C[C@@H](Oc1cc(-c2cnn(C3CCNCC3)c2)cnc1N)c1c(Cl)ccc(F)c1Cl [Crizotinib] (partner 1 µM)

>  <value.kind>
relative viability

>  <readout.number>
0.821

$$$$
>  <compound>
COc1cc(N2CCC(C(N)=O)CC2)ccc1Nc1nc(N)c(Cl)c(Nc2ccccc2S(=O)(=O)C(C)C)n1 [HG-5-88-01] + CC(=O)Nc1cccc(-n2c(=O)n(C3CC3)c(=O)c3c(Nc4ccc(I)cc4F)n(C)c(=O)c(C)c32)c1 [Trametinib] (partner 0.02 µM)

>  <value.kind>
relative viability

>  <readout.number>
0.247

$$$$
>  <compound>
COc1cc(N2CCC(C(N)=O)CC2)ccc1Nc1nc(N)c(Cl)c(Nc2ccccc2S(=O)(=O)C(C)C)n1 [HG-5-88-01] + CC(=O)c1c(C)c2cnc(Nc3ccc(N4CCNCC4)cn3)nc2n(C2CCCC2)c1=O [Palbociclib] (partner 0.5 µM)

>  <value.kind>
relative viability

>  <readout.number>
0.425

$$$$
>  <compound>
C[C@@H]1CN(CC(=O)Nc2ccc3c(c2)Cc2cccc(-c4cc(=O)cc(N5CCOCC5)o4)c2S3)C[C@H](C)O1 + CS(=O)(=O)N1CCN(Cc2cc3nc(-c4cccc5[nH]ncc45)nc(N4CCOCC4)c3s2)CC1 [Pictilisib] (partner 1 µM)

>  <value.kind>
relative viability

>  <readout.number>
0.298

$$$$
>  <compound>
COc1cc(N2CCC(C(N)=O)CC2)ccc1Nc1nc(N)c(Cl)c(Nc2ccccc2S(=O)(=O)C(C)C)n1 [HG-5-88-01] + Cc1nc(NC(=O)N2CCC[C@H]2C(N)=O)sc1-c1ccnc(C(C)(C)C(F)(F)F)c1 [Alpelisib] (partner 2 µM)

>  <value.kind>
relative viability

>  <readout.number>
0.264

$$$$
>  <compound>
C[C@@H]1CN(CC(=O)Nc2ccc3c(c2)Cc2cccc(-c4cc(=O)cc(N5CCOCC5)o4)c2S3)C[C@H](C)O1 + CS(=O)(=O)CCNCc1ccc(-c2ccc3ncnc(Nc4ccc(OCc5cccc(F)c5)c(Cl)c4)c3c2)o1 [Lapatinib] (partner 2 µM)

>  <value.kind>
relative viability

>  <readout.number>
0.754

$$$$
